# test.target: Human plasma kallikrein (Homo sapiens (Human), UniProt P03952)
# Sequence (P03952 391-638 limits assumed): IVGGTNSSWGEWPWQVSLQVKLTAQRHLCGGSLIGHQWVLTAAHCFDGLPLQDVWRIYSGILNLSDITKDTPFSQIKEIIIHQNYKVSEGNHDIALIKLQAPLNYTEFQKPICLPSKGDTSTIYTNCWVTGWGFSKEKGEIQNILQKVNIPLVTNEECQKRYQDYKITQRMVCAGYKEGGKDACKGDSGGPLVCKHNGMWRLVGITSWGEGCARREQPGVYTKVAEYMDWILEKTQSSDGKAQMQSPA
# Sequence (P03952 20-390 partner limits assumed): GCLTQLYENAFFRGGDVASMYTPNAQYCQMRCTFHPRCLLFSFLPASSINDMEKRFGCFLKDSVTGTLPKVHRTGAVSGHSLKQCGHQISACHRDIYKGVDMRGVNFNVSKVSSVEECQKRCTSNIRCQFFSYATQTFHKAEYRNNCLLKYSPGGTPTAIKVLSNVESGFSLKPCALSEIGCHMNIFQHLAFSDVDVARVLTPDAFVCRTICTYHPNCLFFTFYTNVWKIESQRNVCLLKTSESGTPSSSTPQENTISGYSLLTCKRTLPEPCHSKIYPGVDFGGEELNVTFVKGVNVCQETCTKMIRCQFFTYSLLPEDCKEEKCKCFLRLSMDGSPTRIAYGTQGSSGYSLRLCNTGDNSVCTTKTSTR
# test.summary: Determination of the IC50 for plasma kallikrein (fluorogenic substrate H-DPro-Phe-Arg-AFC)
# Format: biochemical
# test.context: 37° C., read-out: IC50 (human PKal)
Checkbox rule: IC50 lower than 1000 nM = Y; IC50 not lower than 1000 nM = N.

>>> df
                                   compound  assigned_category
0  Cc1ccc2cc(Cc3cnc(O)c(C(=O)NCc4ccc5c(N)nccc5c4)c3)ccc2n1                  Y
1  Nc1nccc2cc(CNC(=O)c3cncc(CN4CCN(Cc5ccc(F)cc5)CC4)c3)ccc12                  N
2  Cc1ccc2cc(Cc3cncc(C(=O)NCc4ccc5c(N)nccc5c4)n3)ccc2n1                  Y
3  CNc1ncc(C(=O)NCc2ccc3c(N)nccc3c2)cc1Cc1ccc2nc(C)ccc2c1                  Y
4  CC1CCCN1c1ccc(Cc2cncc(C(=O)NCc3ccc4c(N)nccc4c3)c2)cn1 (centres unmarked)                  Y
5  COc1ccccc1Cc1cncc(C(=O)NCc2ccc3c(N)nccc3c2)c1                  N
6  Nc1nccc2cc(CNC(=O)c3cncc(Cc4ccc(N5CCCC5=O)nc4)c3)ccc12                  Y
7  Nc1nccc2cc(CNC(=O)c3cncc(Cc4ccc(N5CCC(CO)C5)nc4)c3)ccc12 (centres unmarked)                  Y

Is IC50 of CC1(C)CCCN1c1ccc(Cc2cncc(C(=O)NCc3ccc4c(N)nccc4c3)c2)cn1 strictly below 1000 nM? Y

# check: IC50 < 1000 nM for Nc1nccc2cc(CNC(=O)c3cncc(Cc4csc(-c5ccccc5)n4)c3)ccc12 N

Please determine if Nc1nccc2cc(CNC(=O)c3cncc(Cc4ccnc(N5CCC(F)(F)C5)c4)c3)ccc12 is below 1000 nM in terms of IC50. Y

Is it true that IC50 reported for Cc1cnn(Cc2ccc(Cc3cncc(C(=O)NCc4ccc(CN)cc4C)c3)cc2)c1 is less than 1000 nM? Y

Answer whether the compound COC1CCN(c2ccc(Cc3cncc(C(=O)NCc4ccc5c(N)nccc5c4)c3)cn2)C1 (centres unmarked) has IC50 strictly less than 1000 nM Y

Please let me know if Nc1nccc2cc(CNC(=O)c3cncc(Cc4ccc(N5CCC(C(=O)O)C5)nc4)c3)ccc12 (centres unmarked) shows IC50 below 1000 nM. N

Is 1000 nM strictly greater than the compound's reported IC50? compound: Nc1nccc2cc(CNC(=O)c3cncc(Cc4ccc5ccncc5c4)c3)ccc12 N

Given the entry Nc1nccc2cc(CNC(=O)c3cncc(Cc4ccnc(N5CCCC5CO)c4)c3)ccc12 (centres unmarked) , would its reported IC50 be below 1000 nM? Y

Say whether its IC50 is strictly beneath 1000 nM. Entry: Nc1nccc2cc(CNC(=O)c3cncc(CN4CCN(CCc5ccccc5)CC4)c3)ccc12 N

###

# test.target: Human plasma kallikrein (Homo sapiens (Human), UniProt P03952)
# test.summary: Determination of the IC50 for plasma kallikrein (fluorogenic substrate H-DPro-Phe-Arg-AFC)
# test.context: 37° C., read-out: IC50 (human PKal)
reported.metric: pIC50
Note on units: pIC50 is unitless, being -log10 of a concentration expressed in mol/L.

The cases that follow already have their pIC50 on record.
>>> print(df.to_string())
                                   compound                               test_target  numeric_readout
0  COc1ccccc1CN1CCN(Cc2cncc(C(=O)NCc3ccc4c(N)nccc4c3)c2)CC1  Human plasma kallikrein (Homo sapiens (Human), UniProt P03952)             5.74
1  Nc1nccc2cc(CNC(=O)c3cncc(Cc4ccnc(N5CCOCC5)c4)c3)ccc12  Human plasma kallikrein (Homo sapiens (Human), UniProt P03952)             5.78

May I ask what pIC50 has been recorded for CC(C)N(C)c1ccc(Cc2cncc(C(=O)NCc3ccc4c(N)nccc4c3)c2)cn1 ? 7.29

Would you kindly share the measured pIC50 for Nc1nccc2cc(CNC(=O)c3ccc(=O)n(Cc4ccc(Cn5ccccc5=O)cc4)c3)ccc12 ? 7.61

Which pIC50 is reported for this compound? Nc1nccc2cc(CNC(=O)c3cncc(Cc4ccc(N5CCCC5CO)nc4)c3)ccc12 (stereo not shown) 7.13

Which pIC50 is listed for CN(C)[C@H]1CCN(c2cc(Cc3cncc(C(=O)NCc4ccc5c(N)nccc5c4)c3)ccn2)C1 (stereo in doubt) ? 5.77

For the compound shown here, Nc1nccc2cc(CNC(=O)c3cncc(Cc4ccnc(N5CCCC5)c4)c3)ccc12 , give the reported pIC50. 7.42
